Give measured EC50 for each item. Keep answers brief.
# experimental-target: T1, human TSLP recombinant protein (human, UniProt Q969D9 29-159, biotinylated in the blocking and cell-binding assays (sites not given))
# T1 construct: also called biotinylated human TSLP protein
# protocol-summary: ELISA on coated human TSLP;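 further: binding detected by TMB colour development for 10 min at 37 °C, then absorbance measured at 450 nm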
Give bare numbers, in nM.

# count of solved cases: 2
1. Ab27 (antibody, V domains shown, Humanized; also called h39G5VHv11/h71G4VKv1) VH: QVQLVQSGAEVKKPGSSVKVSCKASGYTFTDYWMHWVRQAPGQGLEWMGTIDNSDSDTSLNQKFQGRVTITADTSTSTAYMELSSLRSEDTAVYYCARSLDGYYDYWGQGTLVTVSS VL: DIQMTQSPSSLSASVGDRVTITCRTSENIYSYLAWYQQKPGKAPKLLIYFAKTLTDGVPSRFSGSGSGTDFTLTISSLQPEDFATYYCQHHYGTPWTFGQGTKVEIK; 1.08
2. Ab7 (antibody, V domains shown, Humanized; also called h39G5VHv7/h39G5VKv1) VH: QVQLVQSGAEVKKPGSSVKVSCKASGYTFTDYWMHWVRQAPGQGLEWMGTIDNSDSDTSLNQKFQGRVTLTVDESSSTAYMELSSLRSEDTAVYYCARSLDGYYDYWGQGTLVTVSS VL: DIQMTQSPSSLSASVGDRVTITCRASENIYSYLAWYQQKPGKAPKLLIYNARTLPEGVPSRFSGSGSGTDFTLTISSLQPEDFATYYCQHHYTTPWTFGQGTKVEIK; 1.89

Here's the next entry for you.
Exercise: # lookup: EC50 of Ab15 (antibody, V domains shown, Humanized; also called h39G5VHv15/h39G5VKv1) VH: EVQLVQSGAEVKKPGESLKISCKASGYTFTDYWMHWVRQMPGKGLEWMGTIDNSDSDTSLNQSFQGHVTISADKSSTTAYLQWSSLKASDTAMYYCARSLDGYYDYWGQGTLVTVSS VL: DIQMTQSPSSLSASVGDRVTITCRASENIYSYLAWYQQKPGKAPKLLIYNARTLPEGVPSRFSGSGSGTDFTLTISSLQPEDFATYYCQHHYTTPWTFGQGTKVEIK
Key: 62.9
